experiment: Pharmacokinetic study after single SC injection in BALB/c mice; type: in vivo; settings: mouse; plasma level of the dosed compound; single SC 30 mg/kg, male BALB/c mice, n = 3; read-out: AUC 0–96 h
recordedEndpoint: AUC(0-t) (ng·h/mL)
Numbers only, in ng·h/mL.

What value of AUC(0-t) has been recorded for this entry: Cc1nnc(C(=O)NC(C)(C)c2nc(C(=O)NCc3ccc(F)cc3)c(OCOC(=O)OCCCCCCNCCCc3cn(CCP(=O)(O)O)nn3)c(=O)n2C)o1
3270

====

Test: Pharmacokinetic study after single SC injection in BALB/c mice
Format: in vivo
Details: mouse; plasma level of the dosed compound; single SC 30 mg/kg, male BALB/c mice, n = 3
Method: The pharmacokinetic profile of prodrug 25 was evaluated in mice, in a study undertaken at WuXi AppTec. Prodrug 25 was dissolved in a sterile vehicle of DMSO/Solutol HS15/water (10:10:80) to give a clear solution with a final concentration of 6 mg/mL. […] An LC-MS/MS method was developed to measure the concentrations of prodrug 25 and RAL in the biological matrix. […] The method was linear over the measured standard concentrations for 25 and RAL. […]
recordedEndpoint: Tmax (min)
Answers are plain numbers, in min.

What value of Tmax has been recorded for this entry: Cc1nnc(C(=O)NC(C)(C)c2nc(C(=O)NCc3ccc(F)cc3)c(OCOC(=O)OCCCCCCNCCCc3cn(CCP(=O)(O)O)nn3)c(=O)n2C)o1
15

====

test: Pharmacokinetic study after single SC injection in BALB/c mice; format: in vivo; conditions: mouse, in vivo; plasma level of the dosed compound; single SC 30 mg/kg, male BALB/c mice, n = 3
recordedEndpoint: Cmax (ng/mL)
Give bare numbers, in ng/mL.

What value of Cmax has been recorded for this entry: Cc1nnc(C(=O)NC(C)(C)c2nc(C(=O)NCc3ccc(F)cc3)c(O)c(=O)n2C)o1
6230

====

experiment: Pharmacokinetic study after single SC injection in BALB/c mice; format: in vivo; conditions: male, mouse, in vivo; RAL control, single SC 30 mg/kg, BALB/c mice, 6 h; read-out: plasma concentration remaining after 6 h
recordedEndpoint: concentration at 6 h (ng/mL)
Give bare numbers, in ng/mL.

What value of concentration at 6 h has been recorded for this entry: Cc1nnc(C(=O)NC(C)(C)c2nc(C(=O)NCc3ccc(F)cc3)c(O)c(=O)n2C)o1
10.7

====

test: Pharmacokinetic study after single SC injection in BALB/c mice; format: in vivo; conditions: mouse, in vivo; plasma level of the dosed compound; single SC 30 mg/kg, male BALB/c mice, n = 3
recordedEndpoint: Tmax (min)
Answers are plain numbers, in min.

What value of Tmax has been recorded for this entry: Cc1nnc(C(=O)NC(C)(C)c2nc(C(=O)NCc3ccc(F)cc3)c(O)c(=O)n2C)o1 [RAL, raltegravir]
19.8

====

test: Pharmacokinetic study after single SC injection in BALB/c mice; assay type: in vivo; conditions: mouse; plasma level of the dosed compound; single SC 30 mg/kg, male BALB/c mice, n = 3; read-out: t½ (converted)
recordedEndpoint: half-life (min)
Answers are plain numbers, in min.

What value of half-life has been recorded for this entry: Cc1nnc(C(=O)NC(C)(C)c2nc(C(=O)NCc3ccc(F)cc3)c(OCOC(=O)OCCCCCCNCCCc3cn(CCP(=O)(O)O)nn3)c(=O)n2C)o1 [Compound 25]
51

====

experiment: In vitro release test in 50% PBS (pH 7.4, 34 °C), HPLC; type: physicochemical; settings: 50% PBS buffer; 50% PBS pH 7.4; 25 µM CTG probes, 100 µM prodrug 25; calculated as 0.69/kobs; read-out: t½ (half-life of payload release) (converted)
recordedEndpoint: half-life
# do not omit the unit; it follows the number

What value of half-life has been recorded for this entry: C#CCCCNCCCCCOC(=O)OCOc1ccc2c(-c3ccc(C(=O)O)cc3C)c3ccc(=O)cc-3oc2c1.Cl [Compound 14]
1.69 days

Further cases:
What value of half-life has been recorded for this entry: Cc1nnc(C(=O)NC(C)(C)c2nc(C(=O)NCc3ccc(F)cc3)c(OCOC(=O)OCCCCCCNCCCc3cn(CCP(=O)(O)O)nn3)c(=O)n2C)o1 [Compound 25]
19.3 days

====

experiment: Pharmacokinetic study after single SC injection in BALB/c mice; type: in vivo; settings: mouse, in vivo; plasma level of the dosed compound; single SC 30 mg/kg, male BALB/c mice, n = 3; read-out: AUC 0–96 h
recordedEndpoint: AUC(0-t) (ng·h/mL)
One number for each entry, in ng·h/mL.

What value of AUC(0-t) has been recorded for this entry: Cc1nnc(C(=O)NC(C)(C)c2nc(C(=O)NCc3ccc(F)cc3)c(O)c(=O)n2C)o1
9890

====

test: Pharmacokinetic study after single SC injection in BALB/c mice; format: in vivo; details: mouse; plasma level of the dosed compound; single SC 30 mg/kg, male BALB/c mice, n = 3
recordedEndpoint: Cmax
# do not omit the unit; it follows the number

What value of Cmax has been recorded for this entry: Cc1nnc(C(=O)NC(C)(C)c2nc(C(=O)NCc3ccc(F)cc3)c(OCOC(=O)OCCCCCCNCCCc3cn(CCP(=O)(O)O)nn3)c(=O)n2C)o1
4550 ng/mL

====

assay: In vitro release test in 50% PBS (pH 7.4, 34 °C), HPLC; format: physicochemical; conditions: 50% PBS, pH 7.4, 34 °C, 25 µM probe, 1 d
recordedEndpoint: CTG fluorophore released after 1 d (%)
Answers are plain numbers, in %.

Please review the entries below; each comes with its answer.
What value of CTG fluorophore released after 1 d has been recorded for this entry: C#CCCCNCCCCCCOC(=O)OCOc1ccc2c(-c3ccc(C(=O)O)cc3C)c3ccc(=O)cc-3oc2c1.Cl
29

Then what about the compound Cc1cc(C(=O)OC(C)(C)C)ccc1-c1c2ccc(=O)cc-2oc2cc(OCOC(=O)OCCCCCCNCCCc3cn(CCP(=O)(O)O)nn3)ccc12.Cl ?
20

Then what about the compound Cc1cc(C(=O)O)ccc1-c1c2ccc(=O)cc-2oc2cc(OCOC(=O)OCCCCCNCCCc3cn(CCP(=O)(O)O)nn3)ccc12.Cl ?
25

# ---- query compound ----
What value of CTG fluorophore released after 1 d has been recorded for this entry: C#CCCCNCCCCCOC(=O)OCOc1ccc2c(-c3ccc(C(=O)O)cc3C)c3ccc(=O)cc-3oc2c1.Cl
36

====

experiment: In vitro release test in 50% PBS (pH 7.4, 34 °C), HPLC; assay type: physicochemical; settings: 50% PBS pH 7.4; 25 µM CTG probes, 100 µM prodrug 25; calculated as 0.69/kobs; read-out: t½ (half-life of payload release) (converted)
recordedEndpoint: half-life (h)
Numbers only, in h.

Please review the entries below; each comes with its answer.
What value of half-life has been recorded for this entry: Cc1cc(C(=O)O)ccc1-c1c2ccc(=O)cc-2oc2cc(OCOC(=O)OCCCCCNCCCc3cn(CCP(=O)(O)O)nn3)ccc12.Cl
69.1

Then what about the molecule Cc1cc(C(=O)OC(C)(C)C)ccc1-c1c2ccc(=O)cc-2oc2cc(OCOC(=O)OCCCCCCNCCCc3cn(CCP(=O)(O)O)nn3)ccc12.Cl ?
75.6

# ---- query molecule ----
What value of half-life has been recorded for this entry: C#CCCCNCCCCCCOC(=O)OCOc1ccc2c(-c3ccc(C(=O)O)cc3C)c3ccc(=O)cc-3oc2c1.Cl
47.5

====

assay: In vitro release test in 50% PBS (pH 7.4, 34 °C), HPLC; type: physicochemical; details: 50% PBS, pH 7.4, 34 °C, 25 µM probe, 2 d
Assignment: determine reported CTG fluorophore released after 2 d for the given molecules.
Give bare numbers, in %.

Please review the entries below; each comes with its answer.
What value of CTG fluorophore released after 2 d has been recorded for this entry: Cc1cc(C(=O)O)ccc1-c1c2ccc(=O)cc-2oc2cc(OCOC(=O)OCCCCCNCCCc3cn(CCP(=O)(O)O)nn3)ccc12.Cl
41

Then what about the molecule C#CCCCNCCCCCOC(=O)OCOc1ccc2c(-c3ccc(C(=O)O)cc3C)c3ccc(=O)cc-3oc2c1.Cl ?
58

Then what about the molecule Cc1cc(C(=O)OC(C)(C)C)ccc1-c1c2ccc(=O)cc-2oc2cc(OCOC(=O)OCCCCCCNCCCc3cn(CCP(=O)(O)O)nn3)ccc12.Cl ?
33

Further cases:
What value of CTG fluorophore released after 2 d has been recorded for this entry: C#CCCCNCCCCCCOC(=O)OCOc1ccc2c(-c3ccc(C(=O)O)cc3C)c3ccc(=O)cc-3oc2c1.Cl
50

====

Assay: In vitro release test in 50% Tris buffer (pH 7.4, 34 °C), HPLC
Type: physicochemical
Conditions: 25 µM probe
Procedure: Probes 14–15 and 20–21 stock solutions were prepared at 1000 µM (1 mM) in a 1:1 mixture of MeCN/water, followed by serial dilution with deionised water to give a 50 µM working concentration. […] The correlation coefficient (R2) was computed as 0.999, confirming the linearity of used method under the specified measured concentrations. […]
recordedEndpoint: CTG release after 1 d in 50% Tris buffer (%)
One number for each entry, in %.

What value of CTG release after 1 d in 50% Tris buffer has been recorded for this entry: Cc1cc(C(=O)OC(C)(C)C)ccc1-c1c2ccc(=O)cc-2oc2cc(OCOC(=O)OCCCCCCNCCCc3cn(CCP(=O)(O)O)nn3)ccc12.Cl [Compound 21]
80.9

Then what about the compound C#CCCCNCCCCCCOC(=O)OCOc1ccc2c(-c3ccc(C(=O)O)cc3C)c3ccc(=O)cc-3oc2c1.Cl [Compound 15] ?
86.2

Then what about the compound Cc1cc(C(=O)O)ccc1-c1c2ccc(=O)cc-2oc2cc(OCOC(=O)OCCCCCNCCCc3cn(CCP(=O)(O)O)nn3)ccc12.Cl [Compound 20] ?
82.5

Further cases:
What value of CTG release after 1 d in 50% Tris buffer has been recorded for this entry: C#CCCCNCCCCCOC(=O)OCOc1ccc2c(-c3ccc(C(=O)O)cc3C)c3ccc(=O)cc-3oc2c1.Cl [Compound 14]
89.2
